Test system: HCT116/VM46 (vinblastine-resistant strain of HCT116, Pgp over-expression) cells
Test: Cell growth inhibition assay, HCT116/VM46
Settings: read-out: IC50 (nM) HCT116/VM46; resistant human colon cancer cell line, Pgp over-expression
Lab note: anything with IC50 below 700 nM is marked 1.0; values at 700 nM or higher are marked 0.0.

Answered cases to consult:
{"compound": "CCNC(=O)N(C)[C@@]1(CC)C[C@@H]2CN(CCc3c([nH]c4ccccc34)[C@@](C(=O)OC)(c3cc4c(cc3OC)N(C)[C@H]3[C@@](O)(C(=O)OC)[C@H](OC(C)=O)[C@]5(CC)C=CCN6CC[C@]43[C@@H]65)C2)C1", "assigned-category": 0.0}
{"compound": "CC[C@]1(NC(=S)NC2CCCCC2)C[C@@H]2CN(CCc3c([nH]c4ccccc34)[C@@](C(=O)OC)(c3cc4c(cc3OC)N(C)[C@H]3[C@@](O)(C(=O)OC)[C@H](OC(C)=O)[C@]5(CC)C=CCN6CC[C@]43[C@@H]65)C2)C1", "assigned-category": 1.0}
{"compound": "CCC1(OC(=O)N(C)C)CC2CN(CCc3c([nH]c4ccccc34)C(C(=O)OC)(c3cc4c(cc3OC)N(C)C3C(O)(C(=O)OC)C(OC(C)=O)C5(CC)C=CCN6CCC43C65)C2)C1 (stereo not shown)", "assigned-category": 0.0}
{"compound": "CC[C@]1(NC)C[C@@H]2CN(CCc3c([nH]c4ccccc34)[C@@](C(=O)OC)(c3cc4c(cc3OC)N(C)[C@H]3[C@@](O)(C(=O)OC)[C@H](OC(C)=O)[C@]5(CC)C=CCN6CC[C@]43[C@@H]65)C2)C1", "assigned-category": 0.0}
{"compound": "CC[C@]1(N)C[C@H]2CN(CCc3c([nH]c4ccccc34)[C@@](C(=O)OC)(c3cc4c(cc3OC)N(C)[C@H]3[C@@](O)(C(=O)OC)[C@H](OC(C)=O)[C@]5(CC)C=CCN6CC[C@]43[C@@H]65)C2)C1", "assigned-category": 0.0}
{"compound": "CC[C@]1(NC(=O)Nc2ccc(C)cc2)C[C@@H]2CN(CCc3c([nH]c4ccccc34)[C@@](C(=O)OC)(c3cc4c(cc3OC)N(C)[C@H]3[C@@](O)(C(=O)OC)[C@H](OC(C)=O)[C@]5(CC)C=CCN6CC[C@]43[C@@H]65)C2)C1", "assigned-category": 1.0}
{"compound": "CC[C@]1(NC(=O)NC(C)C)C[C@@H]2CN(CCc3c([nH]c4ccccc34)[C@@](C(=O)OC)(c3cc4c(cc3OC)N(C)[C@H]3[C@@](O)(C(=O)OC)[C@H](OC(C)=O)[C@]5(CC)C=CCN6CC[C@]43[C@@H]65)C2)C1", "assigned-category": 1.0}
{"compound": "CC[C@]1(NC(=O)Nc2ccccc2)C[C@@H]2CN(CCc3c([nH]c4ccccc34)[C@@](C(=O)OC)(c3cc4c(cc3OC)N(C)[C@H]3[C@@](O)(C(=O)OC)[C@H](OC(C)=O)[C@]5(CC)C=CCN6CC[C@]43[C@@H]65)C2)C1", "assigned-category": 1.0}
{"compound": "CC[C@]1(O)C[C@@H]2CN(CCc3c([nH]c4ccccc34)[C@@](C(=O)OC)(c3cc4c(cc3OC)N(C)[C@H]3[C@@](O)(C(=O)OC)[C@H](OC(C)=O)[C@]5(CC)C=CCN6CC[C@]43[C@@H]65)C2)C1 [Vinblastine (1), Vinblastine, reference compound]", "assigned-category": 1.0}
{"compound": "CCC1(NC(=O)N(C)C)CC2CN(CCc3c([nH]c4ccccc34)C(C(=O)OC)(c3cc4c(cc3OC)N(C)C3C(O)(C(=O)OC)C(OC(C)=O)C5(CC)C=CCN6CCC43C65)C2)C1 (stereo not shown)", "assigned-category": 1.0}

Determine whether this compound shows IC50 lower than 700 nM (ties excluded): `CC[C@]1(NC(=O)NCc2ccccc2)C[C@@H]2CN(CCc3c([nH]c4ccccc34)[C@@](C(=O)OC)(c3cc4c(cc3OC)N(C)[C@H]3[C@@](O)(C(=O)OC)[C@H](OC(C)=O)[C@]5(CC)C=CCN6CC[C@]43[C@@H]65)C2)C1`
0.0

* * *

IC50 values for the compounds below.
Test system: HCT116/VM46 (vinblastine-resistant strain of HCT116, Pgp over-expression) cells
Assay: Cell growth inhibition assay, HCT116/VM46
Conditions: read-out: IC50 (nM) HCT116/VM46; resistant human colon cancer cell line, Pgp over-expression
Number in nM, nothing else.

Here is how some compounds turned out for IC50.
{"compound": "CC[C@]1(NC(=S)NCCc2ccc(F)cc2)C[C@@H]2CN(CCc3c([nH]c4ccccc34)[C@@](C(=O)OC)(c3cc4c(cc3OC)N(C)[C@H]3[C@@](O)(C(=O)OC)[C@H](OC(C)=O)[C@]5(CC)C=CCN6CC[C@]43[C@@H]65)C2)C1 [Compound 38]", "IC50 / nM": 750}
{"compound": "CC[C@]1(NC(=O)Nc2ccc(F)cc2)C[C@@H]2CN(CCc3c([nH]c4ccccc34)[C@@](C(=O)OC)(c3cc4c(cc3OC)N(C)[C@H]3[C@@](O)(C(=O)OC)[C@H](OC(C)=O)[C@]5(CC)C=CCN6CC[C@]43[C@@H]65)C2)C1 [Compound 24]", "IC50 / nM": 400}
{"compound": "CCC1(NC(=S)Nc2ccccc2)CC2CN(CCc3c([nH]c4ccccc34)C(C(=O)OC)(c3cc4c(cc3OC)N(C)C3C(O)(C(=O)OC)C(OC(C)=O)C5(CC)C=CCN6CCC43C65)C2)C1 (centres unmarked) [Compound 37]", "IC50 / nM": 650}
{"compound": "CC[C@]1(O)C[C@@H]2CN(CCc3c([nH]c4ccc(F)cc34)[C@@](C(=O)OC)(c3cc4c(cc3OC)N(C)[C@H]3[C@@](O)(C(=O)OC)[C@H](OC(C)=O)[C@]5(CC)C=CCN6CC[C@]43[C@@H]65)C2)C1 [Compound 48, reference compound]", "IC50 / nM": 80}
{"compound": "CC[C@]1(NC(=O)N2CCOCC2)C[C@@H]2CN(CCc3c([nH]c4ccccc34)[C@@](C(=O)OC)(c3cc4c(cc3OC)N(C)[C@H]3[C@@](O)(C(=O)OC)[C@H](OC(C)=O)[C@]5(CC)C=CCN6CC[C@]43[C@@H]65)C2)C1 [Compound 41]", "IC50 / nM": 360}

# lookup: HCT116/VM46 (vinblastine-resistant strain of HCT116, Pgp over-expression) cells IC50, key = CC[C@]1(NC(=O)N2CCSCC2)C[C@@H]2CN(CCc3c([nH]c4ccccc34)[C@@](C(=O)OC)(c3cc4c(cc3OC)N(C)[C@H]3[C@@](O)(C(=O)OC)[C@H](OC(C)=O)[C@]5(CC)C=CCN6CC[C@]43[C@@H]65)C2)C1 [Compound 53]
50

# lookup: HCT116/VM46 (vinblastine-resistant strain of HCT116, Pgp over-expression) cells IC50, key = CCCCNC(=O)N[C@@]1(CC)C[C@@H]2CN(CCc3c([nH]c4ccccc34)[C@@](C(=O)OC)(c3cc4c(cc3OC)N(C)[C@H]3[C@@](O)(C(=O)OC)[C@H](OC(C)=O)[C@]5(CC)C=CCN6CC[C@]43[C@@H]65)C2)C1 [Compound 19]
270

* * *

IC50 values for the compounds below.
Tested on: HCT116/VM46 (vinblastine-resistant strain of HCT116, Pgp over-expression) cells
Experiment: Cell growth inhibition assay, HCT116/VM46
Conditions: read-out: IC50 (nM) HCT116/VM46; resistant human colon cancer cell line, Pgp over-expression
Number in nM, nothing else.

{"compound": "CCC1(NC(=S)N(C)C)CC2CN(CCc3c([nH]c4ccccc34)C(C(=O)OC)(c3cc4c(cc3OC)N(C)C3C(O)(C(=O)OC)C(OC(C)=O)C5(CC)C=CCN6CCC43C65)C2)C1 (stereo not shown)", "measurement-target": "HCT116/VM46 (vinblastine-resistant strain of HCT116, Pgp over-expression) cells", "IC50, nM": 250}
{"compound": "CC[C@]1(NC(=O)NCc2ccccn2)C[C@@H]2CN(CCc3c([nH]c4ccccc34)[C@@](C(=O)OC)(c3cc4c(cc3OC)N(C)[C@H]3[C@@](O)(C(=O)OC)[C@H](OC(C)=O)[C@]5(CC)C=CCN6CC[C@]43[C@@H]65)C2)C1", "measurement-target": "HCT116/VM46 (vinblastine-resistant strain of HCT116, Pgp over-expression) cells", "IC50, nM": 670}

Next, consider the following compound.
Hello, please tell me recorded IC50 for this one: `CC[C@]1(NC(=O)N2CCCCC2)C[C@@H]2CN(CCc3c([nH]c4ccccc34)[C@@](C(=O)OC)(c3cc4c(cc3OC)N(C)[C@H]3[C@@](O)(C(=O)OC)[C@H](OC(C)=O)[C@]5(CC)C=CCN6CC[C@]43[C@@H]65)C2)C1`
50
